- assayInfo: Half life in monkey at 10 mg/kg, iv
- Type: ADME, organism-based, Macaca mulatta
- Set-up: dose 10 mg/kg, route intravenous
- runConditions: rhesus monkey, in vivo
endpointLabel: half-life (h)

1. Cc1cc2cc(N=C(NC(=O)c3ccc(C(=O)N(C)C)nc3)N[C@H]3CCCCN(CC(=O)N4CCCC4)C3=O)ccc2o1 : 14

---

- assayInfo: Total clearance in dog at 2 mg/kg, iv
- Assay type: ADME, organism-based, Canis lupus familiaris
- Design: dose 2 mg/kg, route intravenous
- runConditions: in vivo
endpointLabel: clearance (L/h/kg)

1. Cc1cc2cc(N=C(NC(=O)c3ccc(C(=O)N(C)C)nc3)N[C@H]3CCCCN(CC(=O)N4CCCC4)C3=O)ccc2o1 : 0.114
